- Tested on: Na+-dependent Cl-/HCO3- exchanger (NCBE)
- testDescription: Inhibition of the Na+-dependent Cl-/HCO3- exchanger (NCBE) in human endothelial cells (FLIPR, BCECF pHi recovery)
- Assay type: cell-based
- assayConditions: inhibitor concentration of 10 μM; human endothelial cells (ECV-304); 50 μM HOE 642 present
Residual activity of the NCBE listing for selected compounds.
readoutName: Residual activity of the NCBE (%)

compound=N#CNS(=O)(=O)c1ccccc1-c1ccc(/C=C/c2ccccc2)cc1 resultnumber=19.3
compound=N#CNS(=O)(=O)c1ccccc1-c1ccc(CC2CCCCC2)cc1 resultnumber=51.6
compound="N#CNS(=O)(=O)c1ccccc1-c1ccc(CCc2ccccc2)cc1 [Example 7, 4'-Phenethylbiphenyl-2-sulfonylcyanamide]" resultnumber=64.2
compound=N#CNS(=O)(=O)c1ccccc1-c1ccc(C=C2CCCCCC2)cc1 resultnumber=30.5
compound=N#CNS(=O)(=O)c1ccccc1-c1ccc(/C=C\C2CCCCC2)cc1 resultnumber=13.4
compound=N#CNS(=O)(=O)c1ccccc1-c1ccc(CCC2CCCCC2)cc1 resultnumber=24.3
compound=N#CNS(=O)(=O)c1ccccc1-c1ccc(/C=C\c2ccccc2)cc1 resultnumber=21.2
compound=N#CNS(=O)(=O)c1ccccc1-c1ccc(/C=C/C2CCCCC2)cc1 resultnumber=12.8
compound=N#CNS(=O)(=O)c1ccccc1-c1ccc(C=C2CCCC2)cc1 resultnumber=29.4
compound=N#CNS(=O)(=O)c1ccccc1-c1ccc(C=C2CCCCC2)cc1 resultnumber=68.4
